Reference source for all entries: patent US20240053349A1

Task for the reader: assign each of the following binders its reported Plasma % Bound.
target: human plasma proteins; assay: plasma protein binding, dialysis 4 h at 37 C, 2 µM, LC-MS/MS
Square brackets hold non-standard residues; d marks the D form. Primed or numbered codes have the meaning given here. Side chains are listed from the residue outwards. Ends that are not written are not given here. * marks the point of attachment. DOTA = O=C(O)CN1CCN(CC(=O)O)CCN(CC(=O)*)CCN(CC(=O)O)CC1; Butanoyl(4-(4-I-phenyl)) = O=C(CCCc1ccc(I)cc1)*; Butanoyl(4-(4-MePh)) = Cc1ccc(CCCC(=O)*)cc1; PEG3′ = PEG3 spacer
Provide the reading as a plain figure in %.

Query: Plasma % Bound; subject: [dH][dS][dH][dT][dA]KGFK([PEG3′-DOTA]) (triazole (positions not given here); not fully specified (residue 6, N-terminus); also: triazole macrocycle via Pra and Az4, places not given here) [Fol-hshta-Lys(4-MPBA)-Gly-Phe-Lys(PEG3-DOTA) (compound #3302)] 94.9

Which Plasma % Bound is reported for this binder? [dH][dS][dH][dT][dA]K(Butanoyl(4-(4-I-phenyl)))GFK(DOTA) (triazole (positions not given here); not fully specified (N-terminus); also: triazole macrocycle via Pra and Az4, places not given here) [Folate-hshta-Lys(IPBA)-Gly-Phe-Lys(DOTA) (compound #1307)] 99.5

Recorded Plasma % Bound of [dH][dS][dH][dT][dA]K(Butanoyl(4-(4-MePh)))GFK(DOTA)-OH (triazole (positions not given here); not fully specified (N-terminus); also: triazole macrocycle via Pra and Az4, places not given here) [Folate-hshta-Lys(MPBA)-Gly-Phe-Lys(DOTA) (compound #6305)] , please. 98.3
